Ref: patent US20250304526A1

Item-by-item account of ΔE (E^o′2 − E^o′1)
- procedure_details: Cyclic voltammetry (redox potentials, diffusion coefficients)
- Assay type: physicochemical
- cond: 1 mM in 0.2M TBAPF6/CH3CN
Number only, please.

# count of solved cases: 3
| smiles_str | ΔE (E^o′2 − E^o′1) |
| --- | --- |
| COc1ccc(N(c2ccc(OC)cc2)c2ccc(-c3ccc(N(c4ccc(OC)cc4)c4ccc(OC)cc4)cc3)cc2)cc1 | 0.16 |
| COc1ccc(N(c2ccc(OC)cc2)c2ccc(N(c3ccc(OC)cc3)c3ccc(OC)cc3)cc2)cc1 | 0.38 |
| Cc1ccc(C(F)(F)F)cc1N(c1ccc(-c2ccc(N(c3cc(C(F)(F)F)ccc3C)c3cc(C(F)(F)F)ccc3C)cc2)cc1)c1cc(C(F)(F)F)ccc1C | 0.16 |

Now take the following molecule into account.
Return reported ΔE (E^o′2 − E^o′1). Input molecule: Cc1ccc(C(F)(F)F)cc1N(c1ccc(N(c2cc(C(F)(F)F)ccc2C)c2cc(C(F)(F)F)ccc2C)cc1)c1cc(C(F)(F)F)ccc1C
0.50

* * *

- procedure_details: Solubility determination in pure acetonitrile by mass measurement
- Format: physicochemical
- cond: organic solvent or mixture, thermodynamic from solid, read-out: Solubility
quantity: solubility (mM)
Express your answer in mM, writing the number without its unit.

# count of solved cases: 3
| smiles_str | measured_number |
| --- | --- |
| Cc1ccc(C(F)(F)F)cc1N(c1ccc(N(c2cc(C(F)(F)F)ccc2C)c2cc(C(F)(F)F)ccc2C)cc1)c1cc(C(F)(F)F)ccc1C | 13 |
| COc1ccc(N(c2ccc(OC)cc2)c2ccc(N(c3ccc(OC)cc3)c3ccc(OC)cc3)cc2)cc1 | 9 |
| Cc1ccc(C(F)(F)F)cc1N(c1ccc(-c2ccc(N(c3cc(C(F)(F)F)ccc3C)c3cc(C(F)(F)F)ccc3C)cc2)cc1)c1cc(C(F)(F)F)ccc1C | 13 |

Now take the following compound into account.
Return reported solubility. Input compound: COc1ccc(N(c2ccc(OC)cc2)c2ccc(-c3ccc(N(c4ccc(OC)cc4)c4ccc(OC)cc4)cc3)cc2)cc1
3.5

* * *

Item-by-item account of νmax (IVCT band)
- procedure_details: UV-NIR spectroscopy of radical cations (IVCT band, Hush analysis)
- Format: physicochemical
- cond: radical cation, 0.5 mM in pure CH3CN
- Protocol: In an argon-filled glove box, 0.5 mM solutions of neutral and radical cation were prepared in acetonitrile and pipetted into 1 mm path length optical glass cuvettes. The choice of this path length of cuvette is dictated by the aim to prevent the UV-vis detector saturation of the intensely colored cationic species. […] Class II or III assignment is based on electronic spectroscopy; the broadness and line shape of the IVCT transition is analyzed in this case. […]

# count of solved cases: 3
| smiles_str | result |
| --- | --- |
| Cc1ccc(C(F)(F)F)cc1N(c1ccc(N(c2cc(C(F)(F)F)ccc2C)c2cc(C(F)(F)F)ccc2C)cc1)c1cc(C(F)(F)F)ccc1C | 12849 cm⁻¹ |
| COc1ccc(N(c2ccc(OC)cc2)c2ccc(N(c3ccc(OC)cc3)c3ccc(OC)cc3)cc2)cc1 | 9790 cm⁻¹ |
| Cc1ccc(C(F)(F)F)cc1N(c1ccc(-c2ccc(N(c3cc(C(F)(F)F)ccc3C)c3cc(C(F)(F)F)ccc3C)cc2)cc1)c1cc(C(F)(F)F)ccc1C | 8238 cm⁻¹ |

Now take the following molecule into account.
Return reported νmax (IVCT band). Input molecule: COc1ccc(N(c2ccc(OC)cc2)c2ccc(-c3ccc(N(c4ccc(OC)cc4)c4ccc(OC)cc4)cc3)cc2)cc1
9728 cm⁻¹

* * *

Item-by-item account of Redox peak of radical cation formation (first oxidation potential)
- procedure_details: Cyclic voltammetry (redox potentials, diffusion coefficients)
- Assay type: physicochemical
- cond: 1 mM, 0.1 M TBAPF6 in CH3CN, glassy carbon
Express your answer in V vs Fc^+/Fc, writing the number without its unit.

| molecule | units_symbol | measured_number |
| --- | --- | --- |
| Cc1ccc(C(F)(F)F)cc1N(c1ccc(-c2ccc(N(c3cc(C(F)(F)F)ccc3C)c3cc(C(F)(F)F)ccc3C)cc2)cc1)c1cc(C(F)(F)F)ccc1C [4^+⋅] | V vs Fc^+/Fc | 0.53 |
| COc1ccc(N(c2ccc(OC)cc2)c2ccc(-c3ccc(N(c4ccc(OC)cc4)c4ccc(OC)cc4)cc3)cc2)cc1 [2^+⋅] | V vs Fc^+/Fc | 0.17 |
| COc1ccc(N(c2ccc(OC)cc2)c2ccc(N(c3ccc(OC)cc3)c3ccc(OC)cc3)cc2)cc1 [1^+⋅] | V vs Fc^+/Fc | 0 |

Now take the following molecule into account.
Return reported Redox peak of radical cation formation (first oxidation potential). Input molecule: Cc1ccc(C(F)(F)F)cc1N(c1ccc(N(c2cc(C(F)(F)F)ccc2C)c2cc(C(F)(F)F)ccc2C)cc1)c1cc(C(F)(F)F)ccc1C [3^+⋅]
0.41

* * *

Item-by-item account of E^o′1 (first redox potential)
- procedure_details: Cyclic voltammetry (redox potentials, diffusion coefficients)
- Type: physicochemical
- cond: 1 mM in 0.2M TBAPF6/CH3CN
Please provide the amount together with its unit, number first.

# count of solved cases: 3
| compound | E^o′1 (first redox potential) |
| --- | --- |
| COc1ccc(N(c2ccc(OC)cc2)c2ccc(N(c3ccc(OC)cc3)c3ccc(OC)cc3)cc2)cc1 [1^+⋅] | 0.00 V vs Cp2Fe^0/+ |
| COc1ccc(N(c2ccc(OC)cc2)c2ccc(-c3ccc(N(c4ccc(OC)cc4)c4ccc(OC)cc4)cc3)cc2)cc1 [2^+⋅] | 0.17 V vs Cp2Fe^0/+ |
| Cc1ccc(C(F)(F)F)cc1N(c1ccc(-c2ccc(N(c3cc(C(F)(F)F)ccc3C)c3cc(C(F)(F)F)ccc3C)cc2)cc1)c1cc(C(F)(F)F)ccc1C [4^+⋅] | 0.53 V vs Cp2Fe^0/+ |

Now take the following compound into account.
Return reported E^o′1 (first redox potential). Input compound: Cc1ccc(C(F)(F)F)cc1N(c1ccc(N(c2cc(C(F)(F)F)ccc2C)c2cc(C(F)(F)F)ccc2C)cc1)c1cc(C(F)(F)F)ccc1C [3^+⋅]
0.41 V vs Cp2Fe^0/+

* * *

Item-by-item account of D (diffusion coefficient)
- procedure_details: Cyclic voltammetry (redox potentials, diffusion coefficients)
- Format: physicochemical
- cond: 1 mM in 0.2M TBAPF6/CH3CN, Randles-Sevcik equation

| molecule | D (diffusion coefficient) |
| --- | --- |
| COc1ccc(N(c2ccc(OC)cc2)c2ccc(-c3ccc(N(c4ccc(OC)cc4)c4ccc(OC)cc4)cc3)cc2)cc1 [2^+⋅] | 1.81 10^−6 cm^2 · s^−1 |
| Cc1ccc(C(F)(F)F)cc1N(c1ccc(N(c2cc(C(F)(F)F)ccc2C)c2cc(C(F)(F)F)ccc2C)cc1)c1cc(C(F)(F)F)ccc1C [3^+⋅] | 7.67 10^−6 cm^2 · s^−1 |
| Cc1ccc(C(F)(F)F)cc1N(c1ccc(-c2ccc(N(c3cc(C(F)(F)F)ccc3C)c3cc(C(F)(F)F)ccc3C)cc2)cc1)c1cc(C(F)(F)F)ccc1C [4^+⋅] | 1.54 10^−6 cm^2 · s^−1 |

Now take the following molecule into account.
Return reported D (diffusion coefficient). Input molecule: COc1ccc(N(c2ccc(OC)cc2)c2ccc(N(c3ccc(OC)cc3)c3ccc(OC)cc3)cc2)cc1 [1^+⋅]
4.49 10^−6 cm^2 · s^−1

* * *

- procedure_details: UV-NIR spectroscopy of radical cations (IVCT band, Hush analysis)
- Type: physicochemical
- cond: radical cation, 0.5 mM in pure CH3CN
Item-by-item account of ν1/2 (measured IVCT band width)
Express your answer in cm⁻¹, writing the number without its unit.

# count of solved cases: 3
| smiles_str | quantity | measured_number |
| --- | --- | --- |
| COc1ccc(N(c2ccc(OC)cc2)c2ccc(-c3ccc(N(c4ccc(OC)cc4)c4ccc(OC)cc4)cc3)cc2)cc1 | ν1/2 (measured IVCT band width) | 3524 |
| Cc1ccc(C(F)(F)F)cc1N(c1ccc(-c2ccc(N(c3cc(C(F)(F)F)ccc3C)c3cc(C(F)(F)F)ccc3C)cc2)cc1)c1cc(C(F)(F)F)ccc1C | ν1/2 (measured IVCT band width) | 2519 |
| Cc1ccc(C(F)(F)F)cc1N(c1ccc(N(c2cc(C(F)(F)F)ccc2C)c2cc(C(F)(F)F)ccc2C)cc1)c1cc(C(F)(F)F)ccc1C | ν1/2 (measured IVCT band width) | 4018 |

Now take the following molecule into account.
Return reported ν1/2 (measured IVCT band width). Input molecule: COc1ccc(N(c2ccc(OC)cc2)c2ccc(N(c3ccc(OC)cc3)c3ccc(OC)cc3)cc2)cc1
3846

* * *

Item-by-item account of Kc (comproportionation constant)
- procedure_details: Cyclic voltammetry (redox potentials, diffusion coefficients)
- Type: physicochemical
- cond: calculated from ΔE at 298 K
- Method: CV measurements were carried out in a nitrogen-filled glovebox at ambient glovebox temperature using a VSP-300 potentiostat (BioLogic). Unless otherwise indicated, the CVs were recorded in 0.2 M TBAPF6/CH3CN as electrolyte with 3 mm diameter glassy carbon (CH Instruments, Inc.) as the working electrode. […] Voltammograms were recorded at a scan rate of 100 mV·s^−1. […] The diffusion coefficients were determined using Randles-Sevick equation: […]

# count of solved cases: 3
| compound | result |
| --- | --- |
| Cc1ccc(C(F)(F)F)cc1N(c1ccc(N(c2cc(C(F)(F)F)ccc2C)c2cc(C(F)(F)F)ccc2C)cc1)c1cc(C(F)(F)F)ccc1C [3^+⋅] | 3 × 10^8 |
| Cc1ccc(C(F)(F)F)cc1N(c1ccc(-c2ccc(N(c3cc(C(F)(F)F)ccc3C)c3cc(C(F)(F)F)ccc3C)cc2)cc1)c1cc(C(F)(F)F)ccc1C [4^+⋅] | 5 × 10^2 |
| COc1ccc(N(c2ccc(OC)cc2)c2ccc(N(c3ccc(OC)cc3)c3ccc(OC)cc3)cc2)cc1 [1^+⋅] | 3 × 10^6 |

Now take the following compound into account.
Return reported Kc (comproportionation constant). Input compound: COc1ccc(N(c2ccc(OC)cc2)c2ccc(-c3ccc(N(c4ccc(OC)cc4)c4ccc(OC)cc4)cc3)cc2)cc1 [2^+⋅]
5 × 10^2
